- Test system: NCI-H23
- Measurement Notes: Cytostatic activity against human NCI-H23 cells after 5 days by SRB assay
- Format: functional
- Condition Details: NCI-H23, 120 h
Endpoint Label: GI50 (nM)

Nc1ncnc2c1c(-c1nccs1)cn2[C@@H]1O[C@H](CO)[C@@H](O)[C@H]1O: 5
CSc1ccc(-c2cn([C@@H]3O[C@H](CO)[C@@H](O)[C@H]3O)c3ncnc(N)c23)cc1: 390
Nc1ncnc2c1c(-c1c[nH]nn1)cn2[C@@H]1O[C@H](CO)[C@@H](O)[C@H]1O: 4
Nc1ncnc2c1c(-c1ccco1)cn2[C@@H]1O[C@H](CO)[C@@H](O)[C@H]1O: 294
Nc1ncnc2c1ccn2[C@@H]1O[C@H](CO)[C@@H](O)[C@H]1O: 11

A. COc1ccc(-c2cn([C@@H]3O[C@H](CO)[C@@H](O)[C@H]3O)c3ncnc(N)c23)cc1
B. Nc1ncnc2c1c(-c1ncc[nH]1)cn2[C@@H]1O[C@H](CO)[C@@H](O)[C@H]1O
Lab notebook, comparison: A versus B , higher GI50 goes to which? Identify your selection by its label.
A
